# System: A498 complex spheroids with HUVEC/MSC, growth
# protocol.description: Anticancer human tumor A498 cell line growth inhibition [AhR]; active = viability on the fitted dose curve at most 10% of control; inactive = the rest;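 note: luminescence signal used as a surrogate for viable cells; seven day exposure starting three days after spheroid seeding; luminescence viability scaled so 100% equals DMSO vehicle wells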
# stated.conditions: second compound 3.16 µM; first compound 0.0949 µM
# Description: Multicellular complex tumor spheroid response to aryl hydrocarbon receptor antagonists in combination with a variety of drugs and investigational agents in selected tumor cell lines […] Compounds. […] If the clinical Cmax for an agent had not been determined, the highest concentration tested was 10 microM (Table 1). […]
A correct response names exactly one class from 1 (active), -1 (inactive)

Worked examples, 2 molecules total:
Tell me the recorded outcome of this test for CC(C)CC(NC(=O)C(Cc1ccccc1)NC(=O)c1cnccn1)B(O)O (stereo unspecified) + Cc1cncc(-c2nc(NCCc3c[nH]c4ccccc34)c3ncn(C(C)C)c3n2)c1 . 1

Consider next the molecule CC(C)CC(NC(=O)C(Cc1ccccc1)NC(=O)c1cnccn1)B(O)O (stereo unspecified) + CC(CO)NC(=O)c1cc(-c2ccc(Cl)cc2)nn(-c2cnn(C)c2)c1=O in the same way. 1

Continuing:
Tell me the recorded outcome of this test for O=C(C=Cn1cnc(-c2cc(C(F)(F)F)cc(C(F)(F)F)c2)n1)NNc1cnccn1 + Cc1cncc(-c2nc(NCCc3c[nH]c4ccccc34)c3ncn(C(C)C)c3n2)c1 . -1

Consider next the molecule CCc1c2c(nc3ccc(O)cc13)-c1cc3c(c(=O)n1C2)COC(=O)[C@]3(O)CC + CC(CO)NC(=O)c1cc(-c2ccc(Cl)cc2)nn(-c2cnn(C)c2)c1=O in the same way. -1

Consider next the molecule Nc1ncn(C2CC(O)C(CO)S2)c(=O)n1 (stereo unspecified) + Cc1cncc(-c2nc(NCCc3c[nH]c4ccccc34)c3ncn(C(C)C)c3n2)c1 in the same way. -1

Consider next the molecule O=C(C=Cn1cnc(-c2cc(C(F)(F)F)cc(C(F)(F)F)c2)n1)NNc1cnccn1 + Cc1ccccc1N=Nc1ccc(NC(=O)c2ccnn2C)c(C)c1 in the same way. -1

Every entry's value here was drawn from PubChem BioAssay AID1919007.
